# EXPERIMENT_NOTES: folding enthalpy; higher = less favourable; fluorescence melt of hairpins on a sequencing array, two-state fit
# CONDITION_LABEL: sodium 0.088 M
Param threshold (-20 kcal/mol) applies to folding enthalpy; output y when value >= threshold, n when value < threshold.

Recorded results for 5 sequences are shown here.
GGAGCAGGAAACTGTTCC (((.(((....))).))) ... n
GCGACTCGTCGC ((((....)))) ... n
GATCGGCCCCCGATC ((((((...)))))) ... n
GTCCTTCCGAAAGGAGAC (((..(((....)))))) ... y
GCCAGTGCGAAAGCAGGC (((..(((....)))))) ... y

Does folding enthalpy meet or surpass -20 kcal/mol for GAAACCGAAAGGTCTTTC ((((((....)))..))) ?
y

Is folding enthalpy at least -20 kcal/mol? Consider GTCTACGCGAAAGCGGAC (((..(((....))))))
y

---

Attribute: Tm
# EXPERIMENT_NOTES: melting temperature; fluorescence melt of hairpins on a sequencing array, two-state fit, raised by 9.35 °C to match UV melts
# CONDITION_LABEL: sodium 0.088 M
Report the value in °C with no unit label.

Look over these answered cases.
GCGGTAAGCCGC ((((....)))) ... 57.7
GCTAAGCGAAAGCTAGC (((.(((....)))))) ... 56.1
GCACTCGAAAGAGGGTGC ((((((....)))..))) ... 50.8
GCGTTGGGAAACCGATGC ((.(.((....)).).)) ... 44
GCAGCCGAAAGGCATGC ((((((....))).))) ... 62

Kindly review the next sequence as well.
Tm for GTGGGCGAAAGCCAACAC ((((((....)))..))) ?
53.5

---

Property: Tm; scope: individual sequences
# EXPERIMENT_NOTES: melting temperature; fluorescence melt of hairpins on a sequencing array, two-state fit, raised by 9.35 °C to match UV melts
# CONDITION_LABEL: sodium 0.088 M
Kindly report the value followed by its unit.

GGCGACGGAAACGTCACC ((.((((....)))).)) ... 54.7 °C
GATCCAGGTGTGGATC ((((((....)))))) ... 52 °C
GCAAACGGAAACATTTGC (((((.(....).))))) ... 36.7 °C
ATAGTGAAAACTAT (((((....))))) ... 30.4 °C
GATCATCGAATGATC ((((((...)))))) ... 43.6 °C

Item under review: GCCCTCGAAAGAGTAGGC ((((((....)))..))) . Reported Tm?
49 °C

I am curious: what Tm value has been reported for GATCCGACACCGGATC ((((((....)))))) ?
55.4 °C

Item under review: GCAGACGAAAGTCAGTGC ((((((....)))..))) . Reported Tm?
46.4 °C

Can you look up the measured Tm of GCAAGGCGAAAGCCTGGC ((.((((....)))).)) for me?
68.9 °C

Look up Tm: GCGGCCATCCGC ((((....))))
60 °C

Request the reported Tm associated with GATCGGTTGACCGATC ((((((....))))))
60.3 °C

Which Tm is listed for GGGTACGGAAACGTGCCC (((.(((....))).))) ?
60.1 °C

I would be grateful if you could share the reported Tm for GCAGCGCGAAAGCTCAGC ((.(.((....)).).)) .
39.9 °C

So what's the measured Tm for this one? GGGTCGGGAAACTGGCCC (((.(.(....).).)))
50.6 °C

Fill blank: measured Tm of the sequence GGACGAGGAAACTCATCC (((.(((....))).))) is ____.
36.7 °C

So what's the measured Tm for this one? GCGTGGCGAAAGCCCTGC ((..(((....)))..))
47.2 °C

If you can, please state the reported Tm value of CGCGGACCAATCCGCG ((((((....)))))) .
62.2 °C

Fill blank: measured Tm of the sequence GCTACACGAAAGTGAAGC (((.(((....))).))) is ____.
54.2 °C

The measurements presented in this section are drawn from the array DNA melting data of Ke et al. (doi:10.1101/2024.01.08.574731).
